Assign pest or weed control at 140 g/ha to each entry below.
Test system: Key Broadleaf Weed and Crop Species
test description: Post-Emergent Test II: postemergent herbicidal activity, visual rating after 14 d (Table 7)
Type: in vivo
condition description: post-emergence, 336 h, lambsquarters (Chenopodium album), 140 g ai/ha, read-out: Visual Growth Reduction (%) 14 Days After Application CHEAL
Experimental: Herbicidal evaluations were made visually on a scale of 0 to 100 where 0 represents no activity and 100 represents complete plant death. […] A weighed amount, determined by the highest rate to be tested, of each test compound was placed in a 25 mL glass vial and was dissolved in 4 mL of a 97:3 v/v mixture of acetone and DMSO to obtain concentrated stock solutions. […]

Requested read-out: pest or weed control at 140 g/ha. Entry: `Nc1c(F)c(-c2ccc3c(c2)OC(F)(F)O3)nc(C(=O)O)c1Cl` 95 to 100%

Fill in the blank: the reported pest or weed control at 140 g/ha of `Nc1c(F)c(-c2cc(F)c3c(c2)OC(F)(F)O3)nc(C(=O)O)c1Cl` is ____. 0 to 29%

Consider the molecule shown here: `Nc1nc(-c2ccc3c(c2)OC(F)(F)O3)nc(C(=O)O)c1Cl` What is its recorded pest or weed control at 140 g/ha? 75 to 84%

What measured pest or weed control at 140 g/ha goes with `COC(=O)c1nc(-c2cc3c(cc2Cl)OC(F)(F)O3)cc(N)c1Cl` ? 0 to 29%

For `Nc1cc(-c2cc(F)c3c(c2)OC(F)(F)O3)nc(C(=O)O)c1Cl` , what is its reported pest or weed control at 140 g/ha? 0 to 29%

Please look up its pest or weed control at 140 g/ha: `COC(=O)c1nc(-c2ccc3c(c2)OC(F)(F)O3)c(F)c(N)c1OC` 0 to 29%

Please report the recorded pest or weed control at 140 g/ha for `COC(=O)c1nc(-c2ccc(Cl)c3c2OC(F)(F)O3)c(Cl)c(N)c1Cl` . 95 to 100%

For `COC(=O)c1nc(-c2ccc3c(c2)OC(F)(F)O3)c(F)c(N)c1Cl` , what is its reported pest or weed control at 140 g/ha? 95 to 100%

---

Please go through the items and note down their pest or weed control at 140 g/ha.
System: Key Broadleaf Weed and Crop Species
test description: Post-Emergent Test II: postemergent herbicidal activity, visual rating after 14 d (Table 7)
Assay type: in vivo
condition description: post-emergence, 336 h, lambsquarters (Chenopodium album), 140 g ai/ha, read-out: Visual Growth Reduction (%) 14 Days After Application CHEAL

Recorded pest or weed control at 140 g/ha for `COC(=O)c1nc(-c2ccc3c(c2F)OC(F)(F)O3)cc(N)c1Cl` , please? 95 to 100%

Could you share which pest or weed control at 140 g/ha value was measured for `COC(=O)c1nc(-c2ccc(Br)c3c2OC(F)(F)O3)c(F)c(N)c1Cl` ? 95 to 100%

Find the recorded pest or weed control at 140 g/ha belonging to `COC(=O)c1nc(-c2ccc3c(c2Cl)OC(F)(F)O3)cc(N)c1Cl` and report it. 75 to 84%

Given `C=Cc1c(C(=O)OC)nc(-c2cc3c(cc2F)OCO3)c(F)c1N` , state its recorded pest or weed control at 140 g/ha. 0 to 29%

Item under review: `COC(=O)c1nc(-c2ccc3c(c2OC)OC(F)(F)O3)cc(N)c1Cl` . Reported pest or weed control at 140 g/ha? 45 to 59%

---

Test system: Direct Seeded Rice and weed species
test description: Postemergence herbicidal activity in direct seeded rice, visual rating after 20-22 days and probit GR20/GR50/GR80/GR90 (Table 14)
Type: in vivo
condition description: SCPJU (Schoenoplectus juncoides Roxb.); probit analysis, dose for 90 percent growth reduction
Description: Herbicidal evaluations were made visually on a scale of 0 to 100 where 0 represents no activity and 100 represents complete plant death. […] A weighed amount, determined by the highest rate to be tested, of each test compound was placed in 25 mL glass vials and dissolved in a volume of 97:3 v/v acetone-DMSO to obtain 12× stock solutions. […]
Can you tell me GR90 SCPJU for the items I'm about to list?
# output: bare number, implied unit g ai/ha

Can you look up GR90 SCPJU on Direct Seeded Rice and weed species for `Nc1c(F)c(-c2cc3c(cc2F)OC(F)(F)O3)nc(C(=O)O)c1Cl` ? 0.0001

Kindly state the measured GR90 SCPJU obtained for `COc1c(C(=O)O)nc(-c2ccc3c(c2)OC(F)(F)O3)c(F)c1N` with Direct Seeded Rice and weed species. 0.0001

Give GR90 SCPJU (Direct Seeded Rice and weed species) of the following compound: `Nc1cc(-c2ccc3c(c2F)OC(F)(F)O3)nc(C(=O)O)c1Cl` 0.0001

API: value(readout= GR90 SCPJU, system= Direct Seeded Rice and weed species, query= `Nc1c(F)c(-c2ccc3c(c2F)OC(F)(F)O3)nc(C(=O)O)c1Cl` ) 2

Form entry - test system: Direct Seeded Rice and weed species; read-out: GR90 SCPJU; compound: `COc1c(N)nc(-c2ccc3c(c2F)OC(F)(F)O3)nc1C(=O)O` 0.0001

I'm curious: which GR90 SCPJU was measured for `Nc1cc(-c2cc3c(cc2F)OC(F)(F)O3)nc(C(=O)O)c1Cl` tested on Direct Seeded Rice and weed species? 0.0001

Checklist item: GR90 SCPJU tested on Direct Seeded Rice and weed species, entry `COC(=O)c1nc(-c2ccc3c(c2F)OC(F)(F)O3)c(F)c(N)c1Cl` , value? 0.268

Form field: GR90 SCPJU recorded for `COC(=O)c1nc(-c2ccc3c(c2F)OC(F)(F)O3)cc(N)c1Cl` with Direct Seeded Rice and weed species (enter value) 0.0001

---

Test system: Key Broadleaf Weed and Crop Species
test description: Post-Emergent Test II: postemergent herbicidal activity, visual rating after 14 d (Table 7)
Type: in vivo
condition description: post-emergence, 336 h, BRSNN: oilseed rape, canola (Brassica napus), 35 g ai/ha, read-out: Visual Growth Reduction (%) 14 Days After Application BRSNN
measurement label: pest or weed control at 35 g/ha

Which measured pest or weed control at 35 g/ha belongs to COC(=O)c1nc(-c2cccc3c2OC(F)(F)O3)nc(N)c1OC [Compound 99] , tested on Key Broadleaf Weed and Crop Species? 0 to 29%

Give Key Broadleaf Weed and Crop Species pest or weed control at 35 g/ha for COC(=O)c1nc(-c2ccc(F)c3c2OCO3)cc(N)c1Cl [Compound 92] 30 to 44%

Requested read-out pest or weed control at 35 g/ha, target or system Key Broadleaf Weed and Crop Species, entry COC(=O)c1nc(-c2ccc(Cl)c3c2OC(F)(F)O3)nc(N)c1OC [Compound 95] 45 to 59%

Query for Key Broadleaf Weed and Crop Species: what pest or weed control at 35 g/ha does the record show for COC(=O)c1nc(-c2ccc3c(c2)OCC3)c(F)c(N)c1Cl [Compound 100] ? 0 to 29%

For the record COC(=O)c1nc(-c2ccc(F)c3c2OC(F)(F)O3)cc(N)c1Cl [Compound 88] , what value of pest or weed control at 35 g/ha is listed for Key Broadleaf Weed and Crop Species? 60 to 74%

Request body: readout pest or weed control at 35 g/ha, system Key Broadleaf Weed and Crop Species, query COC(=O)c1nc(-c2cccc3c2OCO3)cc(N)c1Cl [Compound 93] . Return the value. 0 to 29%

I'm curious: which pest or weed control at 35 g/ha was measured for COC(=O)c1nc(-c2ccc(F)c3c2OCO3)c(F)c(N)c1Cl [Compound 83] tested on Key Broadleaf Weed and Crop Species? 30 to 44%

Lab note: need pest or weed control at 35 g/ha for COC(=O)c1nc(-c2ccc3c(c2)SCO3)c(F)c(N)c1Cl [Compound 105] on Key Broadleaf Weed and Crop Species, anyone have it? 0 to 29%

Find pest or weed control at 35 g/ha (Key Broadleaf Weed and Crop Species) for the entry Nc1cc(-c2ccc(F)c3c2OC(F)(F)O3)nc(C(=O)O)c1Cl [Compound 89] 85 to 94%

---

System: Key Grass and Sedge Weeds as well as Grass Crops
test description: Post-Emergent Test II: postemergent herbicidal activity, visual rating after 14 d (Table 8)
Type: in vivo
condition description: post-emergence, 336 h, barnyardgrass (Echinochloa crus-galli), 70 g ai/ha, read-out: Visual Growth Reduction (%) 14 Days After Application ECHCG
Hi there, I'd appreciate the recorded pest or weed control at 70 g/ha for every entry that follows.

Can you look up the measured pest or weed control at 70 g/ha of C=Cc1c(C(=O)OC)nc(-c2cc3c(cc2F)OC(F)(F)O3)c(F)c1N [Compound 27] for me? 0 to 29%

// pest or weed control at 70 g/ha lookup, key: COc1c(C(=O)O)nc(-c2cc3c(cc2F)OC(F)(F)O3)c(F)c1N [Compound 23] 95 to 100%

Name the reported pest or weed control at 70 g/ha value associated with the molecule COC(=O)c1nc(-c2cc3c(cc2F)OC(F)(F)O3)cc(N)c1Cl [Compound 32] 75 to 84%

Any idea what its pest or weed control at 70 g/ha is? The molecule is COC(=O)c1nc(-c2c(F)cc3c(c2F)OC(F)(F)O3)cc(N)c1Cl [Compound 46] 60 to 74%

// returns reported pest or weed control at 70 g/ha for input COC(=O)c1nc(-c2ccc3c(c2)OC(F)(F)O3)c(Cl)c(N)c1Cl [Compound 1] 60 to 74%
